Measurement record for Hepatotoxicity; quantity recorded: HepSE_hepatitis.
parameter: HepSE_hepatitis

[[record]]
compound = "CN(C)CCOc1ccc(/C(=C(/CCCl)c2ccccc2)c2ccccc2)cc1 [TOREMIFENE]"
test_result = 0

[[record]]
compound = "CNC1(C)C2CCC(C2)C1(C)C (stereo not drawn) [MECAMYLAMINE]"
test_result = 0

[[record]]
compound = "CCC[C@@H]1C[C@@H](C(=O)N[C@@H]([C@H]2O[C@H](SC)[C@H](O)[C@@H](O)[C@H]2O)[C@H](C)Cl)N(C)C1 [CLINDAMYCIN]"
test_result = 0

[[record]]
compound = "C[N+](C)(C)CCOC(N)=O.[Cl-] [CARBACHOL]"
test_result = 0

[[record]]
compound = "C[C@H]1O[C@H](O[C@H]2[C@H](O)[C@@H](O)[C@@H](O[C@H]3[C@H](O)[C@@H](O)C(O)O[C@@H]3CO)O[C@@H]2CO)[C@H](O)[C@@H](O)[C@@H]1N[C@H]1C=C(CO)[C@@H](O)[C@H](O)[C@H]1O (stereo partly drawn) [ACARBOSE]"
test_result = 1

[[record]]
compound = "COc1ccc(Cl)cc1C(=O)NCCc1ccc(S(=O)(=O)NC(=O)NC2CCCCC2)cc1 [GLYBURIDE]"
test_result = 1

[[record]]
compound = "CCc1ccc(CCOc2ccc(CC3SC(=O)NC3=O)cc2)nc1 (stereo not drawn) [PIOGLITAZONE]"
test_result = 1

[[record]]
compound = "CCCNC(=O)NS(=O)(=O)c1ccc(Cl)cc1 [CHLORPROPAMIDE]"
test_result = 0

